Measured values drawn from ChEMBL document CHEMBL1137017 for this set.

# test-method-notes: Cytotoxicity against human MT4 cells after 6 days by MTT assay
# Format: cell-based
readout-name: CC50 at 144 h (µM)
Lab book: enter the figure in µM, no units written.

Enquiry: # get_value(readout='CC50 at 144 h', item= Cc1c(O)cccc1C(=O)N[C@@H](CSc1ccccc1)[C@H](O)CN1C[C@H]2CCCC[C@H]2C[C@H]1C(=O)NC(C)(C)C )
Return: 8

Enquiry: # get_value(readout='CC50 at 144 h', item= COC(=O)N[C@H](C(=O)NCCCC[C@@H](CO)N(CC(C)C)S(=O)(=O)c1ccc(N)cc1)C(c1ccccc1)c1ccccc1 [PPL-100] )
Return: 37
